Listed compounds paired with reported relative cell number
- System: BT-20
- protocol-summary: relative cell number vs DMSO control (72 h) (% of DMSO); higher = less growth inhibition (more cells)
- run-conditions: sgRNA knockout: sgNT, 1000 nM

compound	relative cell number
CC(=O)Nc1cccc(-n2c(=O)n(C3CC3)c(=O)c3c(Nc4ccc(I)cc4F)n(C)c(=O)c(C)c32)c1 [Trametinib]	70.5
COc1cc(CCc2cc(NC(=O)c3ccc(N4CC(C)NC(C)C4)cc3)n[nH]2)cc(OC)c1 (configuration not stated) [AZD4547]	81.9
C[C@]1(O)C[C@@H](c2nc(-c3ccc4ccc(-c5ccccc5)nc4c3)c3c(N)nccn32)C1 [Linsitinib]	79.2
COc1cc([C@@H]2c3cc4c(cc3[C@@H](O[C@@H]3O[C@@H]5CO[C@@H](c6cccs6)O[C@H]5[C@H](O)[C@H]3O)[C@H]3COC(=O)[C@H]23)OCO4)cc(OC)c1O [Teniposide]	51.2
C=CC(=O)Nc1cc2c(Nc3ccc(F)c(Cl)c3)ncnc2cc1OCCCN1CCOCC1 [Canertinib]	75.3
Cc1ccccc1-n1c(Cn2cnc3c(N)ncnc32)nc2cccc(C)c2c1=O	102
Cc1nc(Nc2n[nH]c3c2CN(C(=O)N[C@H](CN(C)C)c2ccccc2)C3(C)C)c2sccc2n1	31.8
